# TARGET OR SYSTEM: Q8TB45
# ASSAY COMMENT: holdup assay
# Design: key: below the threshold = too weak to quantify, mostly under pKd 3.1 to 4
# CONDITION DESCRIPTION: plain residues with an end cap or a label only (N-terminal biotin on a linker: ttds)
MEASUREMENT KIND: pKd

Sample records with pKd:
>>> reported_result("SHSSKGETAV [FZD7, O75084]")
"below the threshold"
>>> reported_result("PSRDRKETSI [RALBP1, Q15311]")
"below the threshold"
>>> reported_result("KLVIKTETTV [RASSF6, Q6ZTQ3]")
"below the threshold"
>>> reported_result("PPRQRSETQV [HPV82-E6, Q9IR59]")
"below the threshold"

API: the following record is the query input.
Field request: pKd | item: SSIDLWETAL [SLC15A5, A6NIM6] below the threshold

Reference source for all entries: paper PMC9482650
